Numbers sourced from patent US20100324285A1.

The entries below are paired with their reported Macrophage growth (%).
tested on: RAW264.7 cells; assay: Macrophage growth, living cell count; type: cell-based, mouse; conditions: 5.0 μM; 2 days; relative level versus control

Molecule	System Under Test	Macrophage growth (%)
CS(=O)(=O)Nc1ccc([N+](=O)[O-])cc1OC1CCCCC1 [NS]	RAW264.7 cells	105
CC(=O)Oc1ccccc1C(=O)O [AS, aspirin]	RAW264.7 cells	89
COc1ccc2c(c1)c(CC(=O)O)c(C)n2C(=O)c1ccc(Cl)cc1 [IN, indomethacin]	RAW264.7 cells	122
Nc1cc2nc3ccccc3oc-2cc1=O [2-Aminophenoxazine-3-one, 2-aminophenoxazine-3-one]	RAW264.7 cells	112

* * *

Reported values of PGE2 production (%) for individual entries
test system: RAW264.7 cells; assay: PGE2 production by macrophage RAW264.7, PGE2-EIA kit; type: cell-based, mouse; conditions: 5.0 μM; LPS + IFN-γ, 2 days; relative level versus control
Measured Parameter: PGE2 production (%)

Structure String	Measured Parameter	Output Unit	Numeric Result
CS(=O)(=O)Nc1ccc([N+](=O)[O-])cc1OC1CCCCC1	PGE2 production (%)	%	5
CC(=O)Oc1ccccc1C(=O)O	PGE2 production (%)	%	8
Nc1cc2nc3ccccc3oc-2cc1=O	PGE2 production (%)	%	3
COc1ccc2c(c1)c(CC(=O)O)c(C)n2C(=O)c1ccc(Cl)cc1	PGE2 production (%)	%	2

* * *

// NO production (%) lookup, one value per entry
system: RAW264.7 cells; assay: NO production by macrophage RAW264.7, Griess method; format: cell-based, mouse; details: 10 μM; LPS + IFN-γ, 2 days; relative level versus control

Structure String	System Under Test	Output Unit	NO production (%)
CC(=O)Oc1ccccc1C(=O)O	RAW264.7 cells	%	86
COc1ccc2c(c1)c(CC(=O)O)c(C)n2C(=O)c1ccc(Cl)cc1	RAW264.7 cells	%	78
Nc1cc2nc3ccccc3oc-2cc1=O	RAW264.7 cells	%	14
CS(=O)(=O)Nc1ccc([N+](=O)[O-])cc1OC1CCCCC1	RAW264.7 cells	%	84

* * *

molecular target: COX-1 (Ovis aries, UniProt P05979); construct: purchased Cayman Chemical Company; test: COX Inhibitor Screening Assay Kit, COX-1; type: biochemical; details: PGE2 from arachidonic acid; read-out: IC50 COX-1
Sequence (P05979 25-600): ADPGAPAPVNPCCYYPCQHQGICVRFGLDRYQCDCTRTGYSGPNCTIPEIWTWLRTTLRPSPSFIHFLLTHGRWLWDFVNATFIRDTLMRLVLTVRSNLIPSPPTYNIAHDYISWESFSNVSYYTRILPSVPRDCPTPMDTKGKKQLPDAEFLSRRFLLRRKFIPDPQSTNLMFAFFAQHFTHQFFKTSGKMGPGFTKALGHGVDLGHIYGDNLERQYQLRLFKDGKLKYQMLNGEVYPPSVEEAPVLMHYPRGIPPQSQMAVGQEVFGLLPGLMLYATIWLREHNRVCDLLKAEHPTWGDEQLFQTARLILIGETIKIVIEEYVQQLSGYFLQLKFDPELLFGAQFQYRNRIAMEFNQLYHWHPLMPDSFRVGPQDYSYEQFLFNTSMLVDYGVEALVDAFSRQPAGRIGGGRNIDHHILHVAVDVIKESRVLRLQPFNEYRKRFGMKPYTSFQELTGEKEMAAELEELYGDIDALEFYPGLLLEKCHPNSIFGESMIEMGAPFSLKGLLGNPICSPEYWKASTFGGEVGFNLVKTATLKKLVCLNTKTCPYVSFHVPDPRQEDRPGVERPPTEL

Structure String	System Under Test	IC50
Nc1cc2nc3ccccc3oc-2cc1=O	COX-1 (Ovis aries, UniProt P05979)	6.44 µM

* * *

Readings of PGE2 production (%) for the listed molecules
tested on: RAW264.7 cells; experiment: PGE2 production by macrophage RAW264.7, PGE2-EIA kit; type: cell-based, mouse; conditions: 0.31 μM; LPS + IFN-γ, 2 days; relative level versus control
Measured Parameter: PGE2 production (%)

Molecule	Measured Parameter	Result
COc1ccc2c(c1)c(CC(=O)O)c(C)n2C(=O)c1ccc(Cl)cc1 [IN, indomethacin]	PGE2 production (%)	4%
CC(=O)Oc1ccccc1C(=O)O [AS, aspirin]	PGE2 production (%)	99%
CS(=O)(=O)Nc1ccc([N+](=O)[O-])cc1OC1CCCCC1 [NS]	PGE2 production (%)	4%
Nc1cc2nc3ccccc3oc-2cc1=O [2-Aminophenoxazine-3-one, 2-aminophenoxazine-3-one]	PGE2 production (%)	45%

* * *

Tested on: RAW264.7 cells
Assay: Macrophage growth, living cell count
Assay type: cell-based, mouse
Conditions: 0.16 μM; 2 days; relative level versus control
Excerpt: RAW264.7 cells, a murine macrophage cell strain, were suspended in PRMI1640 medium supplied with 10% (v/v) fetal calf serum (hereinafter abbreviated as “FCS”) to give a cell suspension with a cell concentration of 1×10^6 cells/ml. […] The experimental system without the test samples described above was set as control. […] NO production, PGE2 production and macrophage growth are indicated as relative levels versus controls.
Reported Macrophage growth (%) is given for each of the following compounds.

Compound	Macrophage growth (%)
Nc1cc2nc3ccccc3oc-2cc1=O [2-Aminophenoxazine-3-one, 2-aminophenoxazine-3-one]	117
CS(=O)(=O)Nc1ccc([N+](=O)[O-])cc1OC1CCCCC1 [NS]	95
CC(=O)Oc1ccccc1C(=O)O [AS, aspirin]	103
COc1ccc2c(c1)c(CC(=O)O)c(C)n2C(=O)c1ccc(Cl)cc1 [IN, indomethacin]	102

* * *

System: RAW264.7 cells
Experiment: PGE2 production by macrophage RAW264.7, PGE2-EIA kit
Type: cell-based, mouse
Settings: 0.63 μM; LPS + IFN-γ, 2 days; relative level versus control
Excerpt: RAW264.7 cells, a murine macrophage cell strain, were suspended in PRMI1640 medium supplied with 10% (v/v) fetal calf serum (hereinafter abbreviated as “FCS”) to give a cell suspension with a cell concentration of 1×10^6 cells/ml. […] The experimental system without the test samples described above was set as control. […] NO production, PGE2 production and macrophage growth are indicated as relative levels versus controls.
Recorded PGE2 production (%), one value per entry.

Structure String	PGE2 production (%)
Nc1cc2nc3ccccc3oc-2cc1=O	13%
COc1ccc2c(c1)c(CC(=O)O)c(C)n2C(=O)c1ccc(Cl)cc1	4%
CS(=O)(=O)Nc1ccc([N+](=O)[O-])cc1OC1CCCCC1	2%
CC(=O)Oc1ccccc1C(=O)O	79%

* * *

Test system: RAW264.7 cells
Test: NO production by macrophage RAW264.7, Griess method
Type: cell-based, mouse
Conditions: 0.63 μM; LPS + IFN-γ, 2 days; relative level versus control
Text: As macrophage cells, RAW264.7 cell strain from mouse or macrophage cells obtained from laboratory animals such as mouse can be used. The amount of produced NO can be measured by conventional Griess method. […] RAW264.7 cells, a murine macrophage cell strain, were suspended in PRMI1640 medium supplied with 10% (v/v) fetal calf serum (hereinafter abbreviated as “FCS”) to give a cell suspension with a cell concentration of 1×10^6 cells/ml. […]

Structure String	Output Unit	NO production (%)
CC(=O)Oc1ccccc1C(=O)O	%	102
COc1ccc2c(c1)c(CC(=O)O)c(C)n2C(=O)c1ccc(Cl)cc1	%	81
CS(=O)(=O)Nc1ccc([N+](=O)[O-])cc1OC1CCCCC1	%	87
Nc1cc2nc3ccccc3oc-2cc1=O	%	70

* * *

Entries and their NO production (%)
test system: RAW264.7 cells; assay: NO production by macrophage RAW264.7, Griess method; format: cell-based, mouse; details: 1.3 μM; LPS + IFN-γ, 2 days; relative level versus control

Structure String	NO production (%)
CS(=O)(=O)Nc1ccc([N+](=O)[O-])cc1OC1CCCCC1	85
Nc1cc2nc3ccccc3oc-2cc1=O	54
CC(=O)Oc1ccccc1C(=O)O	93
COc1ccc2c(c1)c(CC(=O)O)c(C)n2C(=O)c1ccc(Cl)cc1	82

* * *

system: RAW264.7 cells; experiment: PGE2 production by macrophage RAW264.7, PGE2-EIA kit; assay type: cell-based, mouse; details: 10 μM; LPS + IFN-γ, 2 days; relative level versus control
In this section we review reported PGE2 production (%) values for a set of molecules.

Structure String	PGE2 production (%)
COc1ccc2c(c1)c(CC(=O)O)c(C)n2C(=O)c1ccc(Cl)cc1	1%
CC(=O)Oc1ccccc1C(=O)O	3%
CS(=O)(=O)Nc1ccc([N+](=O)[O-])cc1OC1CCCCC1	2%
Nc1cc2nc3ccccc3oc-2cc1=O	2%

* * *

// values below are reported Macrophage growth (%)
tested on: RAW264.7 cells; assay: Macrophage growth, living cell count; assay type: cell-based, mouse; details: 2.5 μM; 2 days; relative level versus control
Measured Parameter: Macrophage growth (%)

Structure String	Numeric Result
CS(=O)(=O)Nc1ccc([N+](=O)[O-])cc1OC1CCCCC1	100
COc1ccc2c(c1)c(CC(=O)O)c(C)n2C(=O)c1ccc(Cl)cc1	120
CC(=O)Oc1ccccc1C(=O)O	86
Nc1cc2nc3ccccc3oc-2cc1=O	119
